- target: Adenosine receptor A3 (Homo sapiens); note: in other assays of this panel Not Active means under 50% inhibition at 10 µM;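 note: radioligand binding assay with AB-MECA serving as the labeled ligand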
- Sequence (P0DMS8 whole entry): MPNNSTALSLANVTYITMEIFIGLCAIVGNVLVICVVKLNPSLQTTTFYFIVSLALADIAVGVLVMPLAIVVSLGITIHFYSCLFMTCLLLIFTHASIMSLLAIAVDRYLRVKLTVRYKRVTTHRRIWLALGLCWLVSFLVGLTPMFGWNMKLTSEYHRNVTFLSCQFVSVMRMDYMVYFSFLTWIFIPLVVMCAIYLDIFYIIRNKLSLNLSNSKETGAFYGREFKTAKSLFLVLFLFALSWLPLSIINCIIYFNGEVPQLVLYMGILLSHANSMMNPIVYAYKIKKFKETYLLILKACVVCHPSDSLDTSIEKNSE
- Assay type: cell membranes, CHO-K1, Membrane
- conditions-used: cho-k1
measured-parameter: IC50

1) CN1CCN(CCCN2c3ccccc3Sc3ccc(Cl)cc32)CC1; Not Active
2) Cc1ccccc1N1C(=O)c2cc(S(N)(=O)=O)c(Cl)cc2NC1C (centres undefined); Not Active
3) CC1(C)O[C@@H]2C[C@H]3[C@@H]4CCC5=CC(=O)CC[C@]5(C)[C@@]4(F)[C@@H](O)C[C@]3(C)[C@]2(C(=O)CCl)O1 [HALCINONIDE]; Not Active
4) CC(C)[C@H]1C(=O)N2CCC[C@H]2[C@]2(O)O[C@](NC(=O)[C@@H]3C=C4c5cccc6[nH]cc(c56)C[C@H]4N(C)C3)(C(C)C)C(=O)N12; Not Active
5) CNCCCN1c2ccccc2CCc2ccccc21; Not Active
6) CCOc1ccc(NC(C)=O)cc1; Not Active
7) NCCCCCC(=O)O; Not Active
8) Cc1c(O)c(=O)ccn1C; Not Active
9) C1CCC(C(CC2CCCCN2)C2CCCCC2)CC1 (centres undefined); Not Active

====

- target: Interstitial collagenase (Homo sapiens);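 note: MMP-1 enzyme inhibition assay using a peptide substrate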; note: in other assays of this panel Not Active means under 50% inhibition at 10 µM
- Sequence (P03956 whole entry): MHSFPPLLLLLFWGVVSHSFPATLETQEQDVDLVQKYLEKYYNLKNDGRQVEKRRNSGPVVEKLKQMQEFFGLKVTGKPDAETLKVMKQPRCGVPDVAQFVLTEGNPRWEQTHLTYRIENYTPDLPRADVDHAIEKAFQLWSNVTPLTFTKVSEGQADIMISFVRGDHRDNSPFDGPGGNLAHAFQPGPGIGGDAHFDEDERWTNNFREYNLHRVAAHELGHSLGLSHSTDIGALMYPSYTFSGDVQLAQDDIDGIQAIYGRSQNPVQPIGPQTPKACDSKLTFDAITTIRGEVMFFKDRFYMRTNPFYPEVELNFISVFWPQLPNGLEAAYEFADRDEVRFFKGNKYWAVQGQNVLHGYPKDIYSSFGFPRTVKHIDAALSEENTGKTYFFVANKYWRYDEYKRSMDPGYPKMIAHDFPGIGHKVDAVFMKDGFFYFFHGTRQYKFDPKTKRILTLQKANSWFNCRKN
- measurement-protocol: biochemical
- Type: tissue-based, Rheumatoid synovial fibroblasts
measured-parameter: IC50

1. O=c1[nH]c(=O)n([C@H]2C[C@H](O)[C@@H](CO)O2)cc1I [IDOXURIDINE]; Not Active
2. CSc1ccc(/C=C2/C(C)=C(CC(=O)O)c3cc(F)ccc32)cc1 [SULINDAC SULFIDE]; Not Active
3. Cc1ccc2cc3c(ccc4ccccc43)c3c2c1CC3 [3-METHYLCHOLANTHRENE]; Not Active
4. CC(C)C(=O)Nc1ccc([N+](=O)[O-])c(C(F)(F)F)c1 [FLUTAMIDE]; Not Active
5. Cc1onc(O)c1CC(N)C(=O)O (racemic) [(R,S)-AMPA]; Not Active
6. CNCCCN1c2ccccc2CCc2ccccc21 [DESIPRAMINE]; Not Active
7. c1ccc(Nc2ccc(Nc3ccccc3)cc2)cc1; Not Active
8. C1CCC(C(CC2CCCCN2)C2CCCCC2)CC1 (stereo not given) [PERHEXILINE]; Not Active
9. CC/C(=C(\c1ccccc1)c1ccc(OCCN(C)C)cc1)c1ccccc1 [TAMOXIFEN]; Not Active
10. Cc1cc(C2CCCCC2)n(O)c(=O)c1 [CICLOPIROX]; Not Active

====

Reported values of pKi for individual entries
- target: Alpha-2A adrenergic receptor (Homo sapiens, UniProt P08913); note: in other assays of this panel Not Active means under 50% inhibition at 10 µM
- Sequence (P08913 whole entry): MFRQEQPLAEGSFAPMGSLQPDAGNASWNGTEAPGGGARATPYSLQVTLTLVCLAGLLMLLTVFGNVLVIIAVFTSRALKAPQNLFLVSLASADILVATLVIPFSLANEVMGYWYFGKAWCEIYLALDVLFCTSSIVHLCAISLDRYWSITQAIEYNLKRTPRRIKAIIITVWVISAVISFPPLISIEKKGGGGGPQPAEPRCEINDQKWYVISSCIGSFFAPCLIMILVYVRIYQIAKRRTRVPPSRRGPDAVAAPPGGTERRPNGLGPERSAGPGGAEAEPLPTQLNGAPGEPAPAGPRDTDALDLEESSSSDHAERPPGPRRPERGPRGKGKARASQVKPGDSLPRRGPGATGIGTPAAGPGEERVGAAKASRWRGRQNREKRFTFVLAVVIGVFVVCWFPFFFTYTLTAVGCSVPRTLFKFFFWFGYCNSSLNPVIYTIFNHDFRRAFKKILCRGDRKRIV
- Type: cell membranes, Sf9, Membrane
- conditions-used: read-out: Ki
pKi: −log10 of the molar value.
measured-parameter: pKi

1) CC(C)N1CCN(c2ccc(OCC3COC(Cn4cncn4)(c4ccc(Cl)cc4Cl)O3)cc2)CC1 (centres undefined) [TERCONAZOLE]; 6.43
2) CC(C)[C@H]1C(=O)N2CCC[C@H]2[C@]2(O)O[C@](NC(=O)[C@@H]3C=C4c5cccc6[nH]cc(c56)C[C@H]4N(C)C3)(C(C)C)C(=O)N12 [ERGOCORNINE]; 8.63
3) O=C(CCCN1CC=C(n2c(=O)[nH]c3ccccc32)CC1)c1ccc(F)cc1 [DROPERIDOL]; 5.95
4) O=c1ncn2nc(Sc3ccc(F)cc3F)ccc2c1-c1c(Cl)cccc1Cl [NEFLAMAPIMOD]; 4.89
5) CC[C@@H](CO)NC(=O)[C@@H]1C=C2c3cccc4[nH]cc(c34)C[C@H]2N(C)C1 [METHYLERGONOVINE]; 6.22
6) CC(C)[C@@]1(NC(=O)[C@@H]2C[C@@H]3c4cccc5[nH]cc(c45)C[C@H]3N(C)C2)O[C@@]2(O)[C@@H]3CCCN3C(=O)[C@H](Cc3ccccc3)N2C1=O.CS(=O)(=O)O [DIHYDROERGOCRISTINE MESYLATE]; 9.13
7) CC/C(=C(\c1ccccc1)c1ccc(OCCN(C)C)cc1)c1ccccc1 [TAMOXIFEN]; 6.14
8) CN(Cc1ccc(C(C)(C)C)cc1)Cc1cccc2ccccc12 [BUTENAFINE]; 5.86
9) CN(C)CCCN1c2ccccc2Sc2ccccc21 [PROMAZINE]; 6.90
